- Protocol summary: differential killing of epithelial or mesenchymal cells, primary screen, imaging, PC-3E GFP, TEM4-18 mCherry, co-culture (AID 1345086);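 also: cells exposed to compound for 72 h before imaging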
- Measurement parameters: imaging cell counts, measured here: mesenchymal TEM4-18 mCherry cell survival, at 1 µM
Residues, ends and D or L forms follow the SMILES beside them.
Measured property: normalised cell number
Number, no unit, nothing else.

A selection of reference data follows.
CC(C)[C@H](NC(=O)[C@H](CC(=O)O)NC(=O)[C@H](CCCCN)NC(=O)[C@@H](N)CCCN=C(N)N)C(=O)N[C@@H](Cc1ccc(O)cc1)C(=O)O (H-RKDVY-OH)	0.99
CN(C)CC(=O)OC[C@@H](O)[C@@H](O)[C@H](O)[C@@H](O)C(=O)O	1.1
CC(=O)c1ccc(S(=O)(=O)NC(=O)NC2CCCCC2)cc1	0.85
CC1(C)C2CC[C@]3(C)C(C(=O)C=C4[C@H]5C[C@@](C)(C(=O)O)CC[C@]5(C)CC[C@]43C)[C@@]2(C)CC[C@@H]1O (stereo not given in full)	1.11

Exercise: I would be grateful if you could share the reported normalised cell number for CC1=C(C(=O)O)N2C(=O)[C@@H](NC(=O)C(N)c3ccccc3)[C@H]2SC1 (stereo not given in full) .
Key: 1.23
